The origin of these recorded values is paper PMC11957373.

Listing of recorded Ki by entry.
- ASSAY_SYSTEM: HIV-1 protease (Human immunodeficiency virus type 1 group M subtype B)
- TEST_PROTOCOL: HIV-1 protease inhibition, spectrofluorometric assay
- Format: biochemical
- SETTINGS: HIV-1 protease; value printed in pM
Note: a bare number is incomplete; add the unit.

| SMILES_REPR | ASSAY_RESULT |
| --- | --- |
| COc1ccc(S(=O)(=O)N(CC(C)C)C[C@@H](O)[C@H](Cc2ccccc2)NC(=O)O[C@H]2C[C@@H](C)O[C@H]2[C@H]2CCCO2)cc1 | 44 pM |

# next compound below
Query block: // Input: COC[C@H]1O[C@H](C)C[C@@H]1OC(=O)N[C@@H](Cc1ccccc1)[C@H](O)CN(CC(C)C)S(=O)(=O)c1ccc(OC)cc1 . Output its Ki only.
Result block: 49 pM
